# testSettings: 298 K; 101.33 kPa; Liquid; Capillary tube (Ostwald / Ubbelohde) method
Recorded measurements of viscosity, one per entry
property: viscosity (mPa·s)

compound="CCCCC[N+](CC)(CC)CC.O=S(=O)([N-]S(=O)(=O)C(F)(F)F)C(F)(F)F [triethylpentylammonium bis(trifluoromethylsulfonyl)imide]" units=mPa·s assayvalue=161.6
compound="CCCCCCCC[N+](CC)(CC)CC.O=S(=O)([N-]S(=O)(=O)C(F)(F)F)C(F)(F)F [triethyloctylammonium bis[(trifluoromethyl)sulfonyl]imide]" units=mPa·s assayvalue=221.4
compound="CCCCCC[N+](CC)(CC)CC.O=S(=O)([N-]S(=O)(=O)C(F)(F)F)C(F)(F)F [triethylhexylammonium bis((trifluoromethyl)sulfonyl)imide]" units=mPa·s assayvalue=186.6
compound=CCCCCCCCCCCC[N+](CC)(CC)CC.O=S(=O)([N-]S(=O)(=O)C(F)(F)F)C(F)(F)F units=mPa·s assayvalue=311.8

----------
Reported surface tension liquid-gas values are given for each entry in this list.
# testSettings: 348 K, Capillary rise
property: surface tension liquid-gas (mN/m)

compound="CCCCCCCC[N+](CC)(CC)CC.O=S(=O)([N-]S(=O)(=O)C(F)(F)F)C(F)(F)F [triethyloctylammonium bis[(trifluoromethyl)sulfonyl]imide]" property="surface tension liquid-gas" assayvalue=28.9
compound="CCCCCC[N+](CC)(CC)CC.O=S(=O)([N-]S(=O)(=O)C(F)(F)F)C(F)(F)F [triethylhexylammonium bis((trifluoromethyl)sulfonyl)imide]" property="surface tension liquid-gas" assayvalue=30.1
compound="CCCCC[N+](CC)(CC)CC.O=S(=O)([N-]S(=O)(=O)C(F)(F)F)C(F)(F)F [triethylpentylammonium bis(trifluoromethylsulfonyl)imide]" property="surface tension liquid-gas" assayvalue=32.2
compound=CCCCCCCCCCCC[N+](CC)(CC)CC.O=S(=O)([N-]S(=O)(=O)C(F)(F)F)C(F)(F)F property="surface tension liquid-gas" assayvalue=27.2

----------
# testSettings: 328 K; 101.33 kPa; Liquid; Pycnometric method
// reported mass density for each item listed
property: mass density (kg/m3)

compound="CCCCC[N+](CC)(CC)CC.O=S(=O)([N-]S(=O)(=O)C(F)(F)F)C(F)(F)F [triethylpentylammonium bis(trifluoromethylsulfonyl)imide]" property="mass density" assayvalue=1296.6
compound=CCCCCCCCCCCC[N+](CC)(CC)CC.O=S(=O)([N-]S(=O)(=O)C(F)(F)F)C(F)(F)F property="mass density" assayvalue=1167.9
compound="CCCCCC[N+](CC)(CC)CC.O=S(=O)([N-]S(=O)(=O)C(F)(F)F)C(F)(F)F [triethylhexylammonium bis((trifluoromethyl)sulfonyl)imide]" property="mass density" assayvalue=1267.1
compound="CCCCCCCC[N+](CC)(CC)CC.O=S(=O)([N-]S(=O)(=O)C(F)(F)F)C(F)(F)F [triethyloctylammonium bis[(trifluoromethyl)sulfonyl]imide]" property="mass density" assayvalue=1227.5

----------
The following compounds are shown together with reported viscosity values.
# testSettings: 368 K; 101.33 kPa; Liquid; Capillary tube (Ostwald / Ubbelohde) method
property: viscosity (mPa·s)

compound="CCCCCCCC[N+](CC)(CC)CC.O=S(=O)([N-]S(=O)(=O)C(F)(F)F)C(F)(F)F [triethyloctylammonium bis[(trifluoromethyl)sulfonyl]imide]" assayvalue=13.5
compound="CCCCC[N+](CC)(CC)CC.O=S(=O)([N-]S(=O)(=O)C(F)(F)F)C(F)(F)F [triethylpentylammonium bis(trifluoromethylsulfonyl)imide]" assayvalue=11.5
compound="CCCCCC[N+](CC)(CC)CC.O=S(=O)([N-]S(=O)(=O)C(F)(F)F)C(F)(F)F [triethylhexylammonium bis((trifluoromethyl)sulfonyl)imide]" assayvalue=12.25
compound=CCCCCCCCCCCC[N+](CC)(CC)CC.O=S(=O)([N-]S(=O)(=O)C(F)(F)F)C(F)(F)F assayvalue=16.51

----------
mass density: recorded values
# testSettings: 368 K; 101.33 kPa; Liquid; Pycnometric method
property: mass density (kg/m3)

compound="CCCCC[N+](CC)(CC)CC.O=S(=O)([N-]S(=O)(=O)C(F)(F)F)C(F)(F)F [triethylpentylammonium bis(trifluoromethylsulfonyl)imide]" assayvalue=1265.1
compound=CCCCCCCCCCCC[N+](CC)(CC)CC.O=S(=O)([N-]S(=O)(=O)C(F)(F)F)C(F)(F)F assayvalue=1137.6
compound="CCCCCCCC[N+](CC)(CC)CC.O=S(=O)([N-]S(=O)(=O)C(F)(F)F)C(F)(F)F [triethyloctylammonium bis[(trifluoromethyl)sulfonyl]imide]" assayvalue=1196
compound="CCCCCC[N+](CC)(CC)CC.O=S(=O)([N-]S(=O)(=O)C(F)(F)F)C(F)(F)F [triethylhexylammonium bis((trifluoromethyl)sulfonyl)imide]" assayvalue=1234.9

----------
# testSettings: 308 K, Capillary rise
Numbers after ± are expanded uncertainties.
property: surface tension liquid-gas

compound="CCCCCC[N+](CC)(CC)CC.O=S(=O)([N-]S(=O)(=O)C(F)(F)F)C(F)(F)F [triethylhexylammonium bis((trifluoromethyl)sulfonyl)imide]" assayvalue="33.3 ± 0.5 mN/m"
compound="CCCCC[N+](CC)(CC)CC.O=S(=O)([N-]S(=O)(=O)C(F)(F)F)C(F)(F)F [triethylpentylammonium bis(trifluoromethylsulfonyl)imide]" assayvalue="35 ± 0.5 mN/m"
compound="CCCCCCCC[N+](CC)(CC)CC.O=S(=O)([N-]S(=O)(=O)C(F)(F)F)C(F)(F)F [triethyloctylammonium bis[(trifluoromethyl)sulfonyl]imide]" assayvalue="32.3 ± 0.5 mN/m"
compound=CCCCCCCCCCCC[N+](CC)(CC)CC.O=S(=O)([N-]S(=O)(=O)C(F)(F)F)C(F)(F)F assayvalue="30.9 ± 0.5 mN/m"

----------
Overview of recorded viscosity for various molecules
# testSettings: 333 K; 101.33 kPa; Liquid; Capillary tube (Ostwald / Ubbelohde) method
property: viscosity (mPa·s)

molecule="CCCCC[N+](CC)(CC)CC.O=S(=O)([N-]S(=O)(=O)C(F)(F)F)C(F)(F)F [triethylpentylammonium bis(trifluoromethylsulfonyl)imide]" assayvalue=31.43
molecule="CCCCCC[N+](CC)(CC)CC.O=S(=O)([N-]S(=O)(=O)C(F)(F)F)C(F)(F)F [triethylhexylammonium bis((trifluoromethyl)sulfonyl)imide]" assayvalue=35.41
molecule=CCCCCCCCCCCC[N+](CC)(CC)CC.O=S(=O)([N-]S(=O)(=O)C(F)(F)F)C(F)(F)F assayvalue=49.82
molecule="CCCCCCCC[N+](CC)(CC)CC.O=S(=O)([N-]S(=O)(=O)C(F)(F)F)C(F)(F)F [triethyloctylammonium bis[(trifluoromethyl)sulfonyl]imide]" assayvalue=39.85

----------
# testSettings: 328 K; 101.33 kPa; Liquid; Capillary tube (Ostwald / Ubbelohde) method
property: viscosity (mPa·s)

compound="CCCCC[N+](CC)(CC)CC.O=S(=O)([N-]S(=O)(=O)C(F)(F)F)C(F)(F)F [triethylpentylammonium bis(trifluoromethylsulfonyl)imide]" property=viscosity units=mPa·s assayvalue=37.78
compound=CCCCCCCCCCCC[N+](CC)(CC)CC.O=S(=O)([N-]S(=O)(=O)C(F)(F)F)C(F)(F)F property=viscosity units=mPa·s assayvalue=62.52
compound="CCCCCC[N+](CC)(CC)CC.O=S(=O)([N-]S(=O)(=O)C(F)(F)F)C(F)(F)F [triethylhexylammonium bis((trifluoromethyl)sulfonyl)imide]" property=viscosity units=mPa·s assayvalue=42.34
compound="CCCCCCCC[N+](CC)(CC)CC.O=S(=O)([N-]S(=O)(=O)C(F)(F)F)C(F)(F)F [triethyloctylammonium bis[(trifluoromethyl)sulfonyl]imide]" property=viscosity units=mPa·s assayvalue=48.63

----------
# testSettings: 298 K; 101.33 kPa; Liquid; Pycnometric method
The entries below are paired with their reported mass density.
property: mass density (kg/m3)

compound=CCCCCCCCCCCC[N+](CC)(CC)CC.O=S(=O)([N-]S(=O)(=O)C(F)(F)F)C(F)(F)F units=kg/m3 assayvalue=1191.1
compound="CCCCCC[N+](CC)(CC)CC.O=S(=O)([N-]S(=O)(=O)C(F)(F)F)C(F)(F)F [triethylhexylammonium bis((trifluoromethyl)sulfonyl)imide]" units=kg/m3 assayvalue=1291.4
compound="CCCCCCCC[N+](CC)(CC)CC.O=S(=O)([N-]S(=O)(=O)C(F)(F)F)C(F)(F)F [triethyloctylammonium bis[(trifluoromethyl)sulfonyl]imide]" units=kg/m3 assayvalue=1251.2
compound="CCCCC[N+](CC)(CC)CC.O=S(=O)([N-]S(=O)(=O)C(F)(F)F)C(F)(F)F [triethylpentylammonium bis(trifluoromethylsulfonyl)imide]" units=kg/m3 assayvalue=1321.5

----------
# testSettings: 358 K, Capillary rise
± gives the expanded uncertainty stated by the source.
Some compounds, each annotated with its measured surface tension liquid-gas.
property: surface tension liquid-gas

compound="CCCCCC[N+](CC)(CC)CC.O=S(=O)([N-]S(=O)(=O)C(F)(F)F)C(F)(F)F [triethylhexylammonium bis((trifluoromethyl)sulfonyl)imide]" assayvalue="29.3 ± 0.5 mN/m"
compound="CCCCC[N+](CC)(CC)CC.O=S(=O)([N-]S(=O)(=O)C(F)(F)F)C(F)(F)F [triethylpentylammonium bis(trifluoromethylsulfonyl)imide]" assayvalue="31.5 ± 0.5 mN/m"
compound=CCCCCCCCCCCC[N+](CC)(CC)CC.O=S(=O)([N-]S(=O)(=O)C(F)(F)F)C(F)(F)F assayvalue="26.4 ± 0.5 mN/m"
compound="CCCCCCCC[N+](CC)(CC)CC.O=S(=O)([N-]S(=O)(=O)C(F)(F)F)C(F)(F)F [triethyloctylammonium bis[(trifluoromethyl)sulfonyl]imide]" assayvalue="28.1 ± 0.5 mN/m"

Numbers sourced from the NIST ThermoML archive (doi:10.1016/j.jct.2013.05.031).
